- Tested on: TDF
- assayOverview: cell number relative to DMSO (% of DMSO); higher = more cells (less growth inhibition / toxicity)
- studyConditions: concentration: 10 µM; 24 h
Quick rule: cell number of at least 100 means rule met, below that means rule not met.

Answered cases to consult:
>>> df
                                   compound         group
0  Cc1cc(C)c(S(=O)(=O)Nc2cccc(C(F)(F)F)c2)c(C)c1  rule not met
1  CCCCCCCCC=CCCCCCCCC(=O)OCC(CO)OC(=O)CCCCCCCC=CCCCCCCCC (stereo not drawn)      rule met
2       CC(=O)CCCCn1c(=O)c2c(ncn2C)n(C)c1=O      rule met
3   O=C(NCCO)c1cc(C(=O)NCCO)cc(C(=O)NCCO)c1      rule met
4  C#C[C@@]1(OC(C)=O)CC[C@H]2[C@@H]3CCC4=CC(=O)CC[C@@H]4[C@H]3CC[C@@]21C [(17beta)-17-ethynyl-3-oxoestr-4-en-17-yl acetate]  rule not met

Kindly consider the entry below.
Prompt: Hello, I need to know if COc1cc(C(O)CO)ccc1OS(=O)(=O)[O-].[K+] (stereo not drawn) [MHPG sulfate potassium] has measured cell number not below 100. Thanks!
Completion: rule met

====

// reported cell number for each item listed
- System: TDF
- assayOverview: cell number relative to DMSO (% of DMSO); higher = more cells (less growth inhibition / toxicity)
- studyConditions: concentration: 10 µM; 24 h
Lab note: write the figure by itself, no unit.

>>> df
                                   molecule  testtarget  propertymeasured  endpointvalue
0  COC(=O)C1=C(C)NC(C)=C(C(=O)OCC(C)C)C1c1ccccc1[N+](=O)[O-] (stereo not drawn)         TDF       cell number            104
1  OCC1=CC(O)C2C=COC(OC3OC(CO)C(O)C(O)C3O)C12 (stereo not drawn)         TDF       cell number            107
2  COC(=O)C1C(O)CCC2CN3CCc4c([nH]c5ccccc45)C3CC21.Cl (stereo not drawn) [Yohimbine hydrochloride]         TDF       cell number            113
3  CCC1Cc2cc(O)ccc2C2=C1c1ccc(O)cc1CC2CC [(R,R)-cis-Diethyl tetrahydro-2,8-chrysenediol]         TDF       cell number            110
4  O=Cc1c2[nH]c3ccccc3c2cc2[nH]c3ccccc3c12 [6-Formylindolo [3,2-B] carbazole]         TDF       cell number             99

Prompt: Look at this molecule and give its reported cell number. `O=C(CCCN1CCC(O)(c2cccc(C(F)(F)F)c2)CC1)c1ccc(F)cc1`
Completion: 95.7

Prompt: Same for Nc1ccn(C2OC(CO)C(O)C2O)c(=O)n1 (stereo not drawn)
Completion: 51.3

Prompt: Same for `COc1ccc(-c2cc(=O)c3c(OC)c(OC)c(OC)cc3o2)cc1OC`
Completion: 99.8

====

- System: TDF
- assayOverview: cell number relative to DMSO (% of DMSO); higher = more cells (less growth inhibition / toxicity)
- studyConditions: concentration: 10 µM; 24 h
// reported cell number for each item listed

Prompt: Which measured cell number belongs to CC(=O)C1(O)CCC2C3CCC4=CC(=O)CCC4(C)C3CCC21C (configuration not stated) [17- Hydroxyprogesterone] , tested on TDF?
Completion: 96

Prompt: Same for `N#Cc1c(NC(=O)c2cccc3ccccc23)sc2c1CCCC2`
Completion: 9.56

Prompt: Same for CC(C)(Oc1ccc(CCNC(=O)c2ccc(Cl)cc2)cc1)C(=O)O [Bezafibrate]
Completion: 105

Prompt: Same for COC1(C2=NCCN2)COc2ccccc2O1.Cl (configuration not stated)
Completion: 108

Prompt: Same for N[C@H](C(=O)O)c1cc(O)cc(O)c1 [(S)-3,5-Dihydroxyphenylglycine]
Completion: 105

Prompt: Same for `C=CCCCCCCCCC(=O)O`
Completion: 103

Prompt: Same for CC(C)(C(=O)O)c1ccc(C(O)CCCN2CCC(C(O)(c3ccccc3)c3ccccc3)CC2)cc1.Cl (configuration not stated) [Fexofenadine hydrochloride]
Completion: 111

====

- Test system: TDF
- assayOverview: H1.0 immunofluorescence intensity relative to DMSO (% of DMSO); higher = stronger H1.0 induction, active = 120 or more
- studyConditions: concentration: 10 µM; 24 h
propertyMeasured: H1.0 immunofluorescence intensity
Lab note: write the figure by itself, no unit.

Sample records with H1.0 immunofluorescence intensity:
                                   molecule                   propertymeasured  endpointvalue
0  Cl.Cl.Cl.Cl.NCCCNCCCCNCCCN [Spermine tetrahydrochloride]  H1.0 immunofluorescence intensity           92.3
1  O=C1NC(=O)C(c2cn(CCCn3ccnc3)c3ccccc23)=C1Nc1ccccc1  H1.0 immunofluorescence intensity           87.7
2  Cl.NCCNC(=O)c1ccc(Cl)cc1 [Ro 16-6491 hydrochloride]  H1.0 immunofluorescence intensity           94.8
3  CCCCCCCCCCCCCCCCCC(=O)NCC(COP(=O)([O-])OCC[N+](C)(C)C)OCC (racemic)  H1.0 immunofluorescence intensity            183
4  CCCC1OC2CC3C4CCC5=CC(=O)C=CC5(C)C4C(O)CC3(C)C2(C(=O)CO)O1 (stereo not drawn) [Budesonide]  H1.0 immunofluorescence intensity             82

Prompt: Look at this molecule and give its reported H1.0 immunofluorescence intensity. CCCOC(=O)c1cc(O)c(O)c(O)c1 [N-Propyl gallate]
Completion: 100

Prompt: Same for `COc1cc(SC)ccc1C(=O)N1CCC(Cc2ccccc2)CC1`
Completion: 96.9

Prompt: Same for `COc1ccc(-c2cc(=O)c3c(O)cc(O)cc3o2)cc1`
Completion: 100

====

// reported cell number for each item listed
- Tested on: TDF
- assayOverview: cell number relative to DMSO (% of DMSO); higher = more cells (less growth inhibition / toxicity)
- studyConditions: concentration: 10 µM; 24 h
Lab note: write the figure by itself, no unit.

Sample records with cell number:
compound	propertyMeasured	endpointValue
CC(C)NCC(O)COc1cccc2ccccc12 (stereo unspecified) [Propranolol]	cell number	106
NC(=O)c1ccc2nc(-c3ccc(Oc4ccc(Cl)cc4)cc3)[nH]c2c1 [Chk2 Inhibitor II]	cell number	100

Prompt: Which measured cell number belongs to NC(CC(=O)[O-])C(=O)O.NC(CC(=O)[O-])C(=O)O.[Mg+2] [magnesium bis[(3S)-3-amino-3-carboxypropanoate]] , tested on TDF?
Completion: 102

Prompt: Same for CCCCCC(O)C=CC1C=CC(=O)C1CC=CCCCC(=O)O (stereo unspecified) [Prostaglandin A2]
Completion: 110

Prompt: Same for CSc1nc(N)c2ncn(C3OC(COP(=O)([O-])OP(=O)([O-])[O-])C(O)C3O)c2n1.[Na+].[Na+].[Na+] (stereo unspecified) [2-Methylthioadenosine diphosphate trisodium]
Completion: 92.9

Prompt: Same for O=C1c2c(O)cc(O)cc2OC(c2ccc(O)c(O)c2)C1O (single isomer, unassigned; (+)) [(+)-Taxifolin]
Completion: 83.9

Prompt: Same for `CC(=O)ONC1=c2ccccc2=NC1=C1C(=O)Nc2cc(Br)ccc21`
Completion: 51.1

Prompt: Same for O=C(COc1ccc(C(=O)c2ccccc2)cc1)NC1CCN(Cc2ccccc2)CC1 [2-(4-benzoylphenoxy)-N-(1-benzyl-4-piperidinyl)acetamide]
Completion: 78.3

Prompt: Same for CC(=O)NC(CSCC=C(C)CCC=C(C)CCC=C(C)CCC=C(C)C)C(=O)O (stereo unspecified)
Completion: 98.3

Prompt: Same for CCNC(=O)N1CCN(CCCC(c2ccc(F)cc2)c2ccc(F)cc2)CC1.Cl [Amperozide hydrochloride]
Completion: 95.8

Prompt: Same for `Cc1[nH]c2ccccc2c1C1=C(NCCc2ccc(F)cc2)C(=O)N(C)C1=O`
Completion: 59

Prompt: Same for CC1=C(C)C(=O)C(C(CCCCCC(=O)O)c2ccccc2)=C(C)C1=O (stereo unspecified) [Seratrodast]
Completion: 104

Prompt: Same for Cn1cnc2c(NCc3ccccc3)nc(NCCO)nc21 [Olomoucine]
Completion: 121

Prompt: Same for Cl.N=C(N)c1ccccc1 [Benzamidine hydrochloride]
Completion: 103

Prompt: Same for CC(C)NCC(O)COc1ccc(CC(N)=O)cc1 (stereo unspecified) [Atenolol]
Completion: 102

Prompt: Same for COc1ccc(CCNCC(O)c2ccc(O)cc2)cc1OC (stereo not drawn) [R(-)-Denopamine]
Completion: 103

====

- System: TDF
- assayOverview: H1.0 immunofluorescence intensity relative to DMSO (% of DMSO); higher = stronger H1.0 induction, active = 120 or more
- studyConditions: concentration: 10 µM; 24 h
Quick rule: H1.0 immunofluorescence intensity of at least 100 means Satisfied, below that means Not satisfied.

compound	group
CN1CCN(c2ccc3c(c2)NC(=C2C(=O)N=c4cccc(F)c4=C2N)N3)CC1	Not satisfied

Prompt: Hello, I need to know if CC12CCC(=O)C=C1CCC1C2C(O)CC2(C)C1CCC2(O)C(=O)CO (stereo not given) [Hydrocortisone] has measured H1.0 immunofluorescence intensity not below 100. Thanks!
Completion: Not satisfied

Prompt: Same for CN(C)CCN(Cc1cccs1)c1ccccn1.Cl [Methapyrilene hydrochloride]
Completion: Not satisfied

Prompt: Same for CCCCN1CCC(n2c(=O)[nH]c3ccccc32)CC1.O=C(O)C(=O)O [NS 521 oxalate]
Completion: Not satisfied

Prompt: Same for `O=c1c(-c2ccc(O)cc2)coc2cc(O)cc(O)c12`
Completion: Not satisfied

Prompt: Same for CC(C)NNC(=O)c1ccncc1.O=P(O)(O)O [Iproniazid phosphate]
Completion: Not satisfied

Prompt: Same for CC[C@H](C(=O)Nc1ccccc1N1CCCC1)c1ccccc1 [(2S)-2-Phenyl-N-[2-(1-pyrrolidinyl)phenyl]butanamide]
Completion: Not satisfied
